Ref: patent US20250353864A1

target: EGFR (D770_N771insNPG) (Homo sapiens (Human), UniProt P00533, INS770NPG); assay: HotSpot radiometric kinase assay, EGFR (D770_N771insNPG); settings: 10 μM ATP, read-out: EGFR (Δ770_N771insNPG) IC50
Sequence (P00533 other isoform, or with tags, fused parts or gaps del 1-668/ins NPG behind 770 limits assumed): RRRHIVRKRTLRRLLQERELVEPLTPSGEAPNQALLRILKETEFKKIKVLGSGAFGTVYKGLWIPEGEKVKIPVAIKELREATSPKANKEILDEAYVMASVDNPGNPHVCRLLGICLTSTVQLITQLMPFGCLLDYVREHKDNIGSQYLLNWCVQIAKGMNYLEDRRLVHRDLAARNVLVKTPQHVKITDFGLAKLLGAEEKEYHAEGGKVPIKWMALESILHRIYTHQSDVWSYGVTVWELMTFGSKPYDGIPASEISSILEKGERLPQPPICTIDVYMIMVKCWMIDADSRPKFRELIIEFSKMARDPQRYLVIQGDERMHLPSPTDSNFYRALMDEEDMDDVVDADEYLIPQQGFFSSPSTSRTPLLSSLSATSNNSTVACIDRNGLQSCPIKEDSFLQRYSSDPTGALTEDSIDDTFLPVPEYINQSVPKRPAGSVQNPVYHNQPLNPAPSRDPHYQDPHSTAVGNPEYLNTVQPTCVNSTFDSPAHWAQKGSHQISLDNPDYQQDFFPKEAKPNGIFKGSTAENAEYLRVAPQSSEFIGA
pIC50: −log10 of the molar value.
PROPERTY LABEL: pIC50

Below: 6 compounds and their reported pIC50.
{"COMPOUND": "Cc1nn([C@H]2CN(C)C[C@@H]2O)c2c1/C=C/c1n[nH]c3ccc(cc13)-c1cnn(C)c1CN(C)CCO2 (racemic) [Example 98]", "SYSTEM UNDER TEST": "EGFR (D770_N771insNPG) (Homo sapiens (Human), UniProt P00533, INS770NPG)", "pIC50": 6.83}
{"COMPOUND": "CN1CCN(c2ccc3c(c2)OC2CCN(CCOc4c(cnn4C)-c4ccc5[nH]nc(c5c4)/C=C/3)C2=O)CC1 (stereo in doubt) [Example 131]", "SYSTEM UNDER TEST": "EGFR (D770_N771insNPG) (Homo sapiens (Human), UniProt P00533, INS770NPG)", "pIC50": 8.17}
{"COMPOUND": "CCN1Cc2c(c(OC(C)C)nn2CCO)/C=C/c2n[nH]c3cc(F)c(cc23)-c2cnn(C)c2O[C@@H](C)C1 [Example 216]", "SYSTEM UNDER TEST": "EGFR (D770_N771insNPG) (Homo sapiens (Human), UniProt P00533, INS770NPG)", "pIC50": 7.54}
{"COMPOUND": "Cc1nn([C@H]2C[C@@H](NCCN(C)C)C2)c2c1/C=C/c1n[nH]c3ccc(cc13)-c1cnn(C)c1OCCCO2 [Example 108]", "SYSTEM UNDER TEST": "EGFR (D770_N771insNPG) (Homo sapiens (Human), UniProt P00533, INS770NPG)", "pIC50": 6.99}
{"COMPOUND": "C[C@H]1CN(C)Cc2c(c(OC3CN(S(C)(=O)=O)C3)nn2C)/C=C/c2n[nH]c3ccc(cc23)-c2cnn(C)c2O1 [Example 150]", "SYSTEM UNDER TEST": "EGFR (D770_N771insNPG) (Homo sapiens (Human), UniProt P00533, INS770NPG)", "pIC50": 7.48}
{"COMPOUND": "CC(C)Oc1nn(CCO)c2c1/C=C/c1n[nH]c3ccc(cc13)-c1cnn(C3CC3)c1O[C@@H](C)CN(C)C2 [Example 246]", "SYSTEM UNDER TEST": "EGFR (D770_N771insNPG) (Homo sapiens (Human), UniProt P00533, INS770NPG)", "pIC50": 7.40}

a. CCOc1nn([C@@H](C)CO)c2c1/C=C/c1n[nH]c3cc(F)c(cc13)-c1cnn(C)c1OC[C@H](C)N(C(C)C)C2 [Example 228]
b. CCOc1nn(CCO)c2c1/C=C/c1n[nH]c3ccc(cc13)-c1cnn(C)c1O[C@@H](C)CN(C(C)C)C2 [Example 151]
c. Cc1nn(CCO)c2c1/C=C/c1n[nH]c3ccc(cc13)-c1c(C)nn(C)c1O[C@@H](C)CN(C)C2 [Example 138]
d. Cn1ncc2c1OCCN1CC[C@@H](Oc3ccc(C(C)(C)O)cc3/C=C/c3n[nH]c4ccc-2cc34)C1=O [Example 135]
Arrange these compounds by their pIC50, starting with the largest number. Answer format: list of labels, ordered as asked.
b, c, a, d
(b: 8.59, c: 7.07, a: 6.32, d: 6.10)
